The reported measurements were obtained from paper PMC12503276.

# tgt: PdTRPV5/6-like (Pocillopora damicornis, UniProt Z9K305B7A5)
# Construct: full-length ORF, 724 residues, cloned from aquarium coral cDNA into pcDNA3.1, HEK293 transient expression; EGFP on separate plasmid; tetramer
# measurementProtocol: outside-out patch clamp, HEK293
reportedProperty: pIC50
Please express pIC50 as -log10 of the molar concentration.

Task: So what does the record say about pIC50 for CC(C)[C@@H]1CC[C@@H](C)C[C@H]1O [(-)-menthol] ?
Result: 3.92

----------
# tgt: hTRPV5 (Homo sapiens, UniProt Q9NQA5)
# Construct: EGFP on separate plasmid; tetramer
# Sequence (Q9NQA5 whole entry): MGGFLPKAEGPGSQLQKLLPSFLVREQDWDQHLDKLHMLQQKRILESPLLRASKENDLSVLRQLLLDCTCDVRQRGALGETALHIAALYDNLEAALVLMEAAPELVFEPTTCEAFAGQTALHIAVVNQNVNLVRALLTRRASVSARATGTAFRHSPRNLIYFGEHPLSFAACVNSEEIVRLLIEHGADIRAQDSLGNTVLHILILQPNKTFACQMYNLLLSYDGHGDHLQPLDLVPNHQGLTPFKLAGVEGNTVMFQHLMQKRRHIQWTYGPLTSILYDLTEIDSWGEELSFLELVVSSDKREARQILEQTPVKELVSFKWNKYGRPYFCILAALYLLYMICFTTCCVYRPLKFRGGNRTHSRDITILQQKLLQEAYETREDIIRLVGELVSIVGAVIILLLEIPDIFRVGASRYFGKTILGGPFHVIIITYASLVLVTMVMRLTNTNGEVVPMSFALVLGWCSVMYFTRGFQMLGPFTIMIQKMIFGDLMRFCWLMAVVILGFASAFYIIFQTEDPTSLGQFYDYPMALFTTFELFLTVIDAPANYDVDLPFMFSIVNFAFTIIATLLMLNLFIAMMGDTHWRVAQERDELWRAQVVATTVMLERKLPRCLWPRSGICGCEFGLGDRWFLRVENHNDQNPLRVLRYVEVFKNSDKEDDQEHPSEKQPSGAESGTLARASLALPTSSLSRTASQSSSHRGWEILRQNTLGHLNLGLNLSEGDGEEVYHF
# measurementProtocol: outside-out patch clamp, HEK293
reportedProperty: pIC50
Please express pIC50 as -log10 of the molar concentration.

Task: So what does the record say about pIC50 for Clc1ccc(COC(Cn2ccnc2)c2ccc(Cl)cc2Cl)c(Cl)c1 (stereo not shown) ?
Result: 7.29
